The measurements presented in this section are drawn from paper PMC11617484.

target: inhibitor of nuclear factor kappa-B kinase subunit beta (IKKβ) (Homo sapiens, UniProt O14920); experiment: IKKβ kinase activity assay (dose response, ATP dependence, M96V gatekeeper resistance); supported by cellular thermal shift assay in human podocytes
Sequence (O14920 whole entry): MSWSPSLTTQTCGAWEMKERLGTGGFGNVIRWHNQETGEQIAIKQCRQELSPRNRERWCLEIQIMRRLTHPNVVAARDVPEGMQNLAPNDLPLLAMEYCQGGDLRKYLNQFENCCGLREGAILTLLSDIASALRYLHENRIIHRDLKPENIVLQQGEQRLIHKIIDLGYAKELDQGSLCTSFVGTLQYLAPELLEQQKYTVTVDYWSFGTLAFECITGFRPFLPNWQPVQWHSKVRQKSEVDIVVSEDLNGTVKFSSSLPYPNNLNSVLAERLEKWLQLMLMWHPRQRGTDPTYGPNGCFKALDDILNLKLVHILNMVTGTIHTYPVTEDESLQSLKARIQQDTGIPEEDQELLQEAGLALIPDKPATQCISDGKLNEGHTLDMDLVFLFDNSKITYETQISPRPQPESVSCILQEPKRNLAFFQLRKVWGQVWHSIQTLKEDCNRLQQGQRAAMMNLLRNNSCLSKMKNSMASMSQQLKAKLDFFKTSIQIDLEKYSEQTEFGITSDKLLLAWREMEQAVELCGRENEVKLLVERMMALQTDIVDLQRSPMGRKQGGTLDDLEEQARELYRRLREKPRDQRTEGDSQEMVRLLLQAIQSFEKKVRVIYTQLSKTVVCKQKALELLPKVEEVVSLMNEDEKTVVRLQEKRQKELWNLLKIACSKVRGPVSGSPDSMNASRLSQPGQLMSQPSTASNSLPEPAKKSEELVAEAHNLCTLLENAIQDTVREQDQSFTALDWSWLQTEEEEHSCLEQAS
experimental endpoint: pIC50
pIC50 here is simply -log10 of the concentration when that concentration is written in mol/L.

The molecule listed as CSc1ccc(NC(=O)Nc2ccc(C)nc2)cc1 [BT503] shows pIC50 equal to 6.79
